Examples of compounds with documented viability, T/C follow.
System: 496974-208-R-J2-PDC complex spheroids, growth % test/control
Assay: Anticancer human tumor 496974-208-R-J2-PDC patient-derived pancreatic carcinoma cell line growth inhibition [CLK]
Conditions: second compound 1 µM; first compound 0.316 µM; hits give low values

compound	viability, T/C (%)
CC(CO)NC(=O)c1cc(-c2ccc(Cl)cc2)nn(-c2cnn(C)c2)c1=O (stereo unspecified) + CNC(=O)c1ccc(Nc2nc(OC3CCCC3)c3c(-c4ccc5nc(C)oc5c4)c[nH]c3n2)c(OC)c1	63.5
Nc1ccccc1NC(=O)c1ccc(CNC(=O)OCc2cccnc2)cc1 + CNC(=O)c1ccc(Nc2nc(OC3CCCC3)c3c(-c4ccc5nc(C)oc5c4)c[nH]c3n2)c(OC)c1	67.8
CC1(C)CCC(CN2CCN(c3ccc(C(=O)NS(=O)(=O)c4ccc(NCC5CCOCC5)c([N+](=O)[O-])c4)c(Oc4cnc5[nH]ccc5c4)c3)CC2)=C(c2ccc(Cl)cc2)C1 + CN1CCN(c2cc(C(=O)Nc3cc4cc(-c5cnn(C)c5)ccc4cn3)ccn2)CC1	0.5
C=CC(=O)N1CCN(c2nc(=O)n(-c3c(C)ccnc3C(C)C)c3nc(-c4c(O)cccc4F)c(F)cc23)C(C)C1 (stereo unspecified) + CN1CCN(c2cc(C(=O)Nc3cc4cc(-c5cnn(C)c5)ccc4cn3)ccn2)CC1	1.15
O=c1[nH]cc(F)c(=O)[nH]1 + CN1CCN(c2cc(C(=O)Nc3cc4cc(-c5cnn(C)c5)ccc4cn3)ccn2)CC1	0.5
Nc1ccn(C2OC(CO)C(O)C2(F)F)c(=O)n1 (stereo unspecified) + CNC(=O)c1ccc(Nc2nc(OC3CCCC3)c3c(-c4ccc5nc(C)oc5c4)c[nH]c3n2)c(OC)c1	66.6

====

System: 496974-208-R-J2-PDC complex spheroids, growth % test/control
Assay: Anticancer human tumor 496974-208-R-J2-PDC cell line growth inhibition [CLK]; active = viability on the fitted dose curve at most 10% of control; inactive = the rest
Conditions: second compound 0.0316 µM; first compound 10 µM
Classes used: active, inactive

molecule	group
O=C(c1cc(Cc2n[nH]c(=O)c3ccccc23)ccc1F)N1CCN(C(=O)C2CC2)CC1 + CN1CCN(c2cc(C(=O)Nc3cc4cc(-c5cnn(C)c5)ccc4cn3)ccn2)CC1	inactive
CC1(C)CCC(CN2CCN(c3ccc(C(=O)NS(=O)(=O)c4ccc(NCC5CCOCC5)c([N+](=O)[O-])c4)c(Oc4cnc5[nH]ccc5c4)c3)CC2)=C(c2ccc(Cl)cc2)C1 + CNC(=O)c1ccc(Nc2nc(OC3CCCC3)c3c(-c4ccc5nc(C)oc5c4)c[nH]c3n2)c(OC)c1	inactive
Nc1ccccc1NC(=O)c1ccc(CNC(=O)OCc2cccnc2)cc1 + CN1CCN(c2cc(C(=O)Nc3cc4cc(-c5cnn(C)c5)ccc4cn3)ccn2)CC1	active
COc1ccc([C@@H](O)c2cc(-c3ncnc4cc(N5CCOCC5)ccc34)c(F)cc2Cl)nn1 + CNC(=O)c1ccc(Nc2nc(OC3CCCC3)c3c(-c4ccc5nc(C)oc5c4)c[nH]c3n2)c(OC)c1	inactive
O=c1[nH]cc(F)c(=O)[nH]1 + CNC(=O)c1ccc(Nc2nc(OC3CCCC3)c3c(-c4ccc5nc(C)oc5c4)c[nH]c3n2)c(OC)c1	inactive

====

Test system: 496974-208-R-J2-PDC complex spheroids, growth % test/control
Experiment: Anticancer human tumor 496974-208-R-J2-PDC cell line growth inhibition [CLK]; active = viability on the fitted dose curve at most 10% of control; inactive = the rest;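 note: spheroids exposed to the drugs for 7 days before readout; 100% = DMSO vehicle control wells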
Conditions: second compound 10 µM; first compound 0.1 µM
Classes used: y for active, n for inactive

molecule	group
COc1ccc([C@@H](O)c2cc(-c3ncnc4cc(N5CCOCC5)ccc34)c(F)cc2Cl)nn1 + CN1CCN(c2cc(C(=O)Nc3cc4cc(-c5cnn(C)c5)ccc4cn3)ccn2)CC1	y
C=CC(=O)N1CCN(c2nc(=O)n(-c3c(C)ccnc3C(C)C)c3nc(-c4c(O)cccc4F)c(F)cc23)C(C)C1 (stereo not given) + CN1CCN(c2cc(C(=O)Nc3cc4cc(-c5cnn(C)c5)ccc4cn3)ccn2)CC1	y
CC(Nc1ccc2c(c1)OCCn1cc(N3C(=O)OCC3C(F)F)nc1-2)C(N)=O (stereo not given) + CN1CCN(c2cc(C(=O)Nc3cc4cc(-c5cnn(C)c5)ccc4cn3)ccn2)CC1	y
COc1cccc2c1C(=O)c1c(O)c3c(c(O)c1C2=O)CC(O)(C(=O)CO)CC3OC1CC(N)C(O)C(C)O1 (stereo not given) + CNC(=O)c1ccc(Nc2nc(OC3CCCC3)c3c(-c4ccc5nc(C)oc5c4)c[nH]c3n2)c(OC)c1	n
CC1COCCN1c1cc(C2(S(C)(=N)=O)CC2)nc(-c2ccnc3[nH]ccc23)n1 (stereo not given) + CNC(=O)c1ccc(Nc2nc(OC3CCCC3)c3c(-c4ccc5nc(C)oc5c4)c[nH]c3n2)c(OC)c1	n

====

Test system: 496974-208-R-J2-PDC complex spheroids, growth % test/control
Experiment: Anticancer human tumor 496974-208-R-J2-PDC cell line growth inhibition [CLK]; active means viability on the fitted dose curve at most 10% of control; inactive means the rest;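 note: spheroids exposed to the drugs for 7 days before readout; 100% = DMSO vehicle control wells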
Conditions: second compound 10 µM; first compound 10 µM
Classes used: active, inactive

molecule	group
CCCS(=O)(=O)Nc1ccc(F)c(C(=O)c2c[nH]c3ncc(-c4ccc(Cl)cc4)cc23)c1F + CNC(=O)c1ccc(Nc2nc(OC3CCCC3)c3c(-c4ccc5nc(C)oc5c4)c[nH]c3n2)c(OC)c1	inactive
Nc1ccccc1NC(=O)c1ccc(CNC(=O)OCc2cccnc2)cc1 + CN1CCN(c2cc(C(=O)Nc3cc4cc(-c5cnn(C)c5)ccc4cn3)ccn2)CC1	active
COc1ccc([C@@H](O)c2cc(-c3ncnc4cc(N5CCOCC5)ccc34)c(F)cc2Cl)nn1 + CN1CCN(c2cc(C(=O)Nc3cc4cc(-c5cnn(C)c5)ccc4cn3)ccn2)CC1	active
O=c1[nH]cc(F)c(=O)[nH]1 + CNC(=O)c1ccc(Nc2nc(OC3CCCC3)c3c(-c4ccc5nc(C)oc5c4)c[nH]c3n2)c(OC)c1	inactive
C=C(F)C(=O)N1CCN(c2nc(OCC3CCCN3C)nc3c2CCN(c2cccc4cccc(Cl)c24)C3)CC1CC#N (stereo not given) + CN1CCN(c2cc(C(=O)Nc3cc4cc(-c5cnn(C)c5)ccc4cn3)ccn2)CC1	active

====

Tested on: 496974-208-R-J2-PDC complex spheroids, growth % test/control
Assay: Anticancer human tumor 496974-208-R-J2-PDC cell line growth inhibition [CLK];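 note: spheroids exposed to the drugs for 7 days before readout; 100% = DMSO vehicle control wells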
Conditions: second compound 1 µM; first compound 0.316 µM; hits give low values
Entries and their measured viability, T/C follow.

compound	viability, T/C / %
O=c1[nH]cc(F)c(=O)[nH]1 + CNC(=O)c1ccc(Nc2nc(OC3CCCC3)c3c(-c4ccc5nc(C)oc5c4)c[nH]c3n2)c(OC)c1	71.5
CC(CO)NC(=O)c1cc(-c2ccc(Cl)cc2)nn(-c2cnn(C)c2)c1=O (stereo not given) + CN1CCN(c2cc(C(=O)Nc3cc4cc(-c5cnn(C)c5)ccc4cn3)ccn2)CC1	0.82
C#Cc1c(F)ccc2cc(O)cc(-c3ncc4c(N5CC6CCC(C5)N6)nc(OCC56CCCN5CC(F)C6)nc4c3F)c12 (stereo not given) + CNC(=O)c1ccc(Nc2nc(OC3CCCC3)c3c(-c4ccc5nc(C)oc5c4)c[nH]c3n2)c(OC)c1	31.2
COC1C=CCC(C)C(C)S(=O)(=O)NC(=O)c2ccc3c(c2)N(CC2CCC21)CC1(CCCc2cc(Cl)ccc21)CO3 (stereo not given) + CN1CCN(c2cc(C(=O)Nc3cc4cc(-c5cnn(C)c5)ccc4cn3)ccn2)CC1	1.64
C=C(F)C(=O)N1CCN(c2nc(OCC3CCCN3C)nc3c2CCN(c2cccc4cccc(Cl)c24)C3)CC1CC#N (stereo not given) + CN1CCN(c2cc(C(=O)Nc3cc4cc(-c5cnn(C)c5)ccc4cn3)ccn2)CC1	1.51

====

Tested on: 496974-208-R-J2-PDC complex spheroids, growth % test/control
Assay: Anticancer human tumor 496974-208-R-J2-PDC cell line growth inhibition [CLK]; active = viability on the fitted dose curve at most 10% of control; inactive = the rest;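 note: spheroids exposed to the drugs for 7 days before readout; 100% = DMSO vehicle control wells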
Settings: second compound 0.316 µM; first compound 0.316 µM
Possible outcomes: true for active, false for inactive

molecule	group
C=C(F)C(=O)N1CCN(c2nc(OCC3CCCN3C)nc3c2CCN(c2cccc4cccc(Cl)c24)C3)CC1CC#N (stereo not given) + CNC(=O)c1ccc(Nc2nc(OC3CCCC3)c3c(-c4ccc5nc(C)oc5c4)c[nH]c3n2)c(OC)c1	false
COC1C=CCC(C)C(C)S(=O)(=O)NC(=O)c2ccc3c(c2)N(CC2CCC21)CC1(CCCc2cc(Cl)ccc21)CO3 (stereo not given) + CN1CCN(c2cc(C(=O)Nc3cc4cc(-c5cnn(C)c5)ccc4cn3)ccn2)CC1	true
CC(CO)NC(=O)c1cc(-c2ccc(Cl)cc2)nn(-c2cnn(C)c2)c1=O (stereo not given) + CNC(=O)c1ccc(Nc2nc(OC3CCCC3)c3c(-c4ccc5nc(C)oc5c4)c[nH]c3n2)c(OC)c1	false
COc1c(OCCCN2CCOCC2)ccc2c3n(c(=NC(=O)c4cnc(N)nc4)nc12)CCN3 + CNC(=O)c1ccc(Nc2nc(OC3CCCC3)c3c(-c4ccc5nc(C)oc5c4)c[nH]c3n2)c(OC)c1	true
CCN1CCN(Cc2ccc(Nc3ncc(F)c(-c4cc(F)c5nc(C)n(C(C)C)c5c4)n3)nc2)CC1 + CNC(=O)c1ccc(Nc2nc(OC3CCCC3)c3c(-c4ccc5nc(C)oc5c4)c[nH]c3n2)c(OC)c1	false
